Where do these numbers come from? They come from ChEMBL document CHEMBL1139195.

Where a SMILES comes first, the peptide text is derived from it. [ ]: non-standard residue; d: D form. Phe(2,6-Me2,4-CONH2) = Cc1cc(C(N)=O)cc(C)c1C[C@H](N)C(=O)O
// Ki collected for Delta-type opioid receptor (Homo sapiens)
Report the figure in nM without appending any unit label.

• CC(C)C[C@@H](NC(=O)[C@H](Cc1ccccc1)NC(=O)CNC(=O)[C@@H](C)NC(=O)[C@@H](N)Cc1ccc2nc(N)sc2c1)C(=O)O = 10
• Cc1cc(C(N)=O)cc(C)c1C[C@H](N)C(=O)NCC(=O)NCC(=O)N[C@@H](Cc1ccccc1)C(=O)N[C@@H](CC(C)C)C(=O)O (H-[Phe(2,6-Me2,4-CONH2)]GGFL-OH) = 1

# next compound below
query: Name the recorded Ki for `CC(C)C[C@@H](NC(=O)[C@H](Cc1ccccc1)NC(=O)CNC(=O)[C@@H](C)NC(=O)[C@@H](N)Cc1ccc(N)cc1)C(=O)O` .
result: 19

----------
Where a SMILES comes first, the peptide text is derived from it. [ ]: non-standard residue; d: D form. Ala(2-NH2-benzothiazol-6-yl) = Nc1nc2ccc(C[C@H](N)C(=O)O)cc2s1; Phe(4-CONH2) = NC(=O)c1ccc(C[C@H](N)C(=O)O)cc1
// Delta-type opioid receptor (Homo sapiens, UniProt P41143) EC50 records
Output spec: scalar in nM, unitless text.

query: # input molecule: `Cc1cc(C(N)=O)cc(C)c1C[C@H](N)C(=O)N[C@H](C)C(=O)NCC(=O)N[C@@H](Cc1ccccc1)C(=O)N[C@H](CC(C)C)C(=O)O` ; wanted: its EC50
result: 2.5

query: Consider next the molecule `CC(C)C[C@@H](NC(=O)[C@H](Cc1ccccc1)NC(=O)CNC(=O)[C@@H](C)NC(=O)[C@@H](N)Cc1cccc(C(N)=O)c1)C(=O)O` in the same way.
result: 1700

query: Follow-up item: `CC(C)C[C@H](NC(=O)[C@H](Cc1ccccc1)NC(=O)CNC(=O)[C@@H](CO)NC(=O)[C@@H](N)Cc1cccc(C(N)=O)c1)C(=O)N[C@H](C(=O)O)[C@@H](C)O`
result: 730

query: Further, for `CSCC[C@H](NC(=O)[C@H](Cc1ccccc1)NC(=O)CNC(=O)[C@@H](C)NC(=O)[C@@H](N)Cc1ccc2nc(N)sc2c1)C(=O)O` ?
result: 24

query: Repeat for the following molecule: `CC(C)C[C@H](NC(=O)[C@H](Cc1ccccc1)NC(=O)CNC(=O)[C@@H](CO)NC(=O)[C@@H](N)Cc1ccc2nc(N)sc2c1)C(=O)N[C@H](C(=O)O)[C@@H](C)O`
result: 97

query: Same lookup for CC(C)C[C@H](NC(=O)[C@H](Cc1ccccc1)NC(=O)CNC(=O)CNC(=O)[C@@H](N)Cc1ccc2nc(N)sc2c1)C(=O)O (H-[Ala(2-NH2-benzothiazol-6-yl)]GGFL-OH) , please.
result: 580

query: Try CSCC[C@H](NC(=O)[C@H](Cc1ccccc1)NC(=O)CNC(=O)CNC(=O)[C@@H](N)Cc1ccc(C(N)=O)cc1)C(N)=O (H-[Phe(4-CONH2)]GGFM-NH2) next.
result: 10

----------
Where a SMILES comes first, the peptide text is derived from it. [ ]: non-standard residue; d: D form. Phe(2,6-Me2,4-CONH2) = Cc1cc(C(N)=O)cc(C)c1C[C@H](N)C(=O)O; Phe(4-CONH2) = NC(=O)c1ccc(C[C@H](N)C(=O)O)cc1
This section lists pKi readings for Mu-type opioid receptor (Homo sapiens).
The quantity pKi is defined as the negative base-10 logarithm of the molar concentration.

- CSCC[C@H](NC(=O)[C@H](Cc1ccccc1)NC(=O)CNC(=O)CNC(=O)[C@@H](N)Cc1ccc(C(N)=O)cc1)C(N)=O (H-[Phe(4-CONH2)]GGFM-NH2): 7.74
- Cc1cc(C(N)=O)cc(C)c1C[C@H](N)C(=O)NCC(=O)NCC(=O)N[C@@H](Cc1ccccc1)C(=O)N[C@@H](CC(C)C)C(=O)O (H-[Phe(2,6-Me2,4-CONH2)]GGFL-OH): 8.01
- Cc1cc(C(N)=O)cc(C)c1C[C@H](N)C(=O)N[C@H](CO)C(=O)NCC(=O)N[C@@H](Cc1ccccc1)C(=O)N[C@@H](CC(C)C)C(=O)N[C@H](C(=O)O)[C@@H](C)O: 7.72

Now for a further compound.
query: Reported pKi for Mu-type opioid receptor (Homo sapiens), given `Cc1cc(C(N)=O)cc(C)c1C[C@H](N)C(=O)N[C@H](C)C(=O)NCC(=O)N[C@@H](Cc1ccccc1)C(=O)N[C@H](CC(C)C)C(=O)O` ?
result: 8.01
